Test System: TLR2/TLR6 (Mus musculus) (UniProt Q9QUN7+Q9EPW9)
Assay Explanation: Inhibition of TLR2/6 in BALB/c mouse BMDM assessed as downregulation of BLP-stimulated IL-12p40 level at 5 ug/ml preincubated for 18 hrs followed by BLP challenge measured after 24 hrs by ELISA relative to control
Format: protein-complex assay
Activity calls are given as the source filed them. How the calls were made is not given here.
The categories you may choose from are True = active, False = inactive

Please review the entries below; each comes with its answer.
| Query Smiles | Class Name |
| --- | --- |
| CC(C)NCCS(=O)(=O)c1ccccc1 | True |
| O=S(=O)(Cc1ccc2ccccc2c1)NCCN1CCCC1 | False |
| Cc1ccc(CNS(=O)(=O)CCN2CCCC2)cc1 | False |

Ask: Per the records of this test, what outcome belongs to O=S(=O)(CCN1CCOCC1)c1ccccc1 ?
Result: True

Ask: Field entry: Cc1ccc(CS(=O)(=O)NCCN2CCCC2)cc1
Result: False
